Test system: SW620 human colorectal cancer cells
TEST: MTT based cell viability assay: potentiation of the growth inhibiting activity of MMS
CONDITION: Homo sapiens, SW-620, 120 h, read-out: IC50 (nM), potentiation of the growth inhibiting activity of MMS, SW620 cells, 1.7 μg/ml MMS, 5 days (120 hours), MTT
RESULT_TYPE: IC50 (nM)

So what does the record say about IC50 for O=C(c1cccc(Cn2c(=O)[nH]c(=O)c3cc(Cl)ccc32)c1)N1CCN(C(=O)C2CCC2)CC1 ? 48

Report IC50 for O=C(c1cccc(Cn2c(=O)[nH]c(=O)c3c(F)cccc32)c1)N1CCN(C(=O)C2CCCC2)CC1 please. 37

Need IC50 of O=C(c1cccc(Cn2c(=O)[nH]c(=O)c3cc(Br)ccc32)c1)N1CCN(c2ncccn2)CC1 , thanks. 137

Using the record for O=C(c1ccc(F)c(Cn2c(=O)[nH]c(=O)c3cc(Cl)ccc32)c1)N1CCN(C(=O)C2CCCCC2)CC1 , report its IC50. 6.7

Recorded IC50 for O=C(c1cc(Cn2c(=O)[nH]c(=O)c3ccccc32)ccc1F)N1CCN(c2nccs2)CC1 , please? 21

A: O=C(c1ccc(F)c(Cn2c(=O)[nH]c(=O)c3c(F)cccc32)c1)N1CCN(C(=O)C2CCCC2)CC1
B: O=C(c1ccc(F)c(Cn2c(=O)[nH]c(=O)c3cc(F)ccc32)c1)N1CCN(C(=O)c2cccs2)CC1
C: O=C(c1ccc(F)c(Cn2c(=O)[nH]c(=O)c3ccccc32)c1)N1CCN(C(=O)C2CCC2)CC1
D: Cc1ccc2c(c1)c(=O)[nH]c(=O)n2Cc1cccc(C(=O)N2CCN(C(=O)C3CCCC3)CC2)c1
E: O=C(c1ccc(F)c(Cn2c(=O)[nH]c(=O)c3ccccc32)c1)N1CCN(C(=O)c2ccco2)CC1
Order field: IC50 | Direction: descending (largest first) # format: label list in the order the request specifies D, E, C, B, A
(D: 459 nM, E: 217 nM, C: 59 nM, B: 18 nM, A: 7.8 nM)
